# assay_system: Thyrotropin-releasing hormone receptor (Homo sapiens) (UniProt P34981)
# Sequence (P34981 whole entry, looked up): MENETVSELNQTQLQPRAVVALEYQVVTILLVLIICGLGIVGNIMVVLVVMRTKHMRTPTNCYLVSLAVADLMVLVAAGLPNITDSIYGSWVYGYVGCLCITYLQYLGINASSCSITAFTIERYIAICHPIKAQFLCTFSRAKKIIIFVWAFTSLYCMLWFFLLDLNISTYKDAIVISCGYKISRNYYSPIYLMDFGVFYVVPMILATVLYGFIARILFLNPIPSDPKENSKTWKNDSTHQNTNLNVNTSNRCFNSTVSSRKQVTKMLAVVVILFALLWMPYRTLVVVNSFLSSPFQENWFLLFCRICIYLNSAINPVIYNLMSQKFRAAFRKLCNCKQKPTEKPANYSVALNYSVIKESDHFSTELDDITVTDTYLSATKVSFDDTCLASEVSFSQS
# protocol_text: qHTS assay to identify small molecule antagonists of the thyrotropin-releasing hormone receptor (TRHR) signaling pathway (AID 1346877)
# measurement_conditions: TRHR-HEK293, TRH-induced calcium fluorescence, antagonist mode; series mostly up to 51.3 µM
Activity calls are given as the source filed them. The call rests on the fitted dose curve; in most records, active means well fitted inhibition curve with a large enough effect in the repeat runs (not every such curve was filed as active); inconclusive means weak or mixed curves; inactive means flat fitted curve, though single readings scatter.

compound	assay_system	activity, negative = inhibition
OC1(c2ccc(Cl)c(C(F)(F)F)c2)CCN(CCCC(c2ccc(F)cc2)c2ccc(F)cc2)CC1	Thyrotropin-releasing hormone receptor (Homo sapiens) (UniProt P34981)	inactive
CCCCCOc1ccccc1/C(=C\SC)n1ccnc1	Thyrotropin-releasing hormone receptor (Homo sapiens) (UniProt P34981)	inactive
O=C(Oc1ccccc1)c1ccccc1C(=O)Oc1ccccc1	Thyrotropin-releasing hormone receptor (Homo sapiens) (UniProt P34981)	inactive
C=C(C)C(=O)OCC(O)COc1ccc(C(C)(C)c2ccc(OCC(O)COC(=O)C(=C)C)cc2)cc1 (centres undefined)	Thyrotropin-releasing hormone receptor (Homo sapiens) (UniProt P34981)	inactive
Nc1c(Cl)cc(Cl)cc1Cl	Thyrotropin-releasing hormone receptor (Homo sapiens) (UniProt P34981)	inactive
CCCCCCCCCCCC(=O)NCCCN(C)C	Thyrotropin-releasing hormone receptor (Homo sapiens) (UniProt P34981)	inactive
CC1=NC(C)OC1C (centres undefined)	Thyrotropin-releasing hormone receptor (Homo sapiens) (UniProt P34981)	inactive
OCCN1CCN(CC/C=C2/c3ccccc3Sc3ccc(C(F)(F)F)cc32)CC1	Thyrotropin-releasing hormone receptor (Homo sapiens) (UniProt P34981)	inactive
Cc1cccc(CN2CCN(C(c3ccccc3)c3ccc(Cl)cc3)CC2)c1 (centres undefined)	Thyrotropin-releasing hormone receptor (Homo sapiens) (UniProt P34981)	inactive
CCC(CN)=C(c1ccccc1)c1ccccc1	Thyrotropin-releasing hormone receptor (Homo sapiens) (UniProt P34981)	inactive
O=C(Nc1cccc(C(F)(F)F)c1)c1cc(Br)cc(Br)c1O	Thyrotropin-releasing hormone receptor (Homo sapiens) (UniProt P34981)	inactive
CCC1=C[C@@H]2CN(C1)Cc1c([nH]c3ccccc13)[C@@](C(=O)OC)(c1cc3c(cc1OC)N(C)[C@H]1[C@@](O)(C(=O)OC)[C@H](OC(C)=O)[C@]4(CC)C=CCN5CC[C@]31[C@@H]54)C2	Thyrotropin-releasing hormone receptor (Homo sapiens) (UniProt P34981)	inactive
CNc1ccc(O)cc1	Thyrotropin-releasing hormone receptor (Homo sapiens) (UniProt P34981)	inactive
CCCCN1CCCC[C@H]1C(=O)Nc1c(C)cccc1C	Thyrotropin-releasing hormone receptor (Homo sapiens) (UniProt P34981)	inactive
NC(=O)C1(N2CCCCC2)CCN(CCCN2c3ccccc3CCc3ccc(Cl)cc32)CC1	Thyrotropin-releasing hormone receptor (Homo sapiens) (UniProt P34981)	inactive
[Cl][Au]([Cl])[Cl]	Thyrotropin-releasing hormone receptor (Homo sapiens) (UniProt P34981)	inactive
CC1=C(C(=O)OC(C)C)C(c2cccc([N+](=O)[O-])c2)C(C(=O)OC2CN(C(c3ccccc3)c3ccccc3)C2)=C(N)N1 (centres undefined)	Thyrotropin-releasing hormone receptor (Homo sapiens) (UniProt P34981)	inactive
O=C(Nc1cccc(Cl)c1)OCC#CCCl	Thyrotropin-releasing hormone receptor (Homo sapiens) (UniProt P34981)	inactive
Nc1ccccc1O	Thyrotropin-releasing hormone receptor (Homo sapiens) (UniProt P34981)	inactive
CN(C)CCCOC1(Cc2ccccc2)CCCCCC1	Thyrotropin-releasing hormone receptor (Homo sapiens) (UniProt P34981)	inactive
O=C(NOCC1CC1)c1ccc(F)c(F)c1Nc1ccc(I)cc1Cl	Thyrotropin-releasing hormone receptor (Homo sapiens) (UniProt P34981)	inactive
c1ccc(CSCc2ccccc2)cc1	Thyrotropin-releasing hormone receptor (Homo sapiens) (UniProt P34981)	inactive
CCC1OCC(COc2ccc(Oc3ccccc3)cc2)O1 (centres undefined)	Thyrotropin-releasing hormone receptor (Homo sapiens) (UniProt P34981)	inactive
COc1cccc(N)c1	Thyrotropin-releasing hormone receptor (Homo sapiens) (UniProt P34981)	inactive
COc1ccc(-c2ccc3cc(C(=O)O)ccc3c2)cc1C12CC3CC(CC(C3)C1)C2	Thyrotropin-releasing hormone receptor (Homo sapiens) (UniProt P34981)	inactive
CN(C)c1ccc(SC#N)cc1	Thyrotropin-releasing hormone receptor (Homo sapiens) (UniProt P34981)	inactive
COc1cc(/C=C/C(=O)O[C@H]2CC[C@]34C[C@]35CC[C@]3(C)[C@@H]([C@H](C)CCC=C(C)C)CC[C@@]3(C)[C@@H]5CC[C@H]4C2(C)C)ccc1O	Thyrotropin-releasing hormone receptor (Homo sapiens) (UniProt P34981)	inactive
O=C(OCC(COC(=O)c1ccccc1)(COC(=O)c1ccccc1)COC(=O)c1ccccc1)c1ccccc1	Thyrotropin-releasing hormone receptor (Homo sapiens) (UniProt P34981)	inactive
CN1CCC(Nc2ncc3ncnc(Nc4ccc(F)c(Cl)c4)c3n2)CC1	Thyrotropin-releasing hormone receptor (Homo sapiens) (UniProt P34981)	inactive
O=C(NO)C1(NS(=O)(=O)c2ccc(Oc3ccc(F)cc3)cc2)CCOCC1	Thyrotropin-releasing hormone receptor (Homo sapiens) (UniProt P34981)	inactive
CCCCCOC(=O)CCCC	Thyrotropin-releasing hormone receptor (Homo sapiens) (UniProt P34981)	inactive
Oc1ccc(N=Nc2ccccc2)cc1	Thyrotropin-releasing hormone receptor (Homo sapiens) (UniProt P34981)	inactive
CCc1cc(SCc2sc(-c3ccc(C(F)(F)F)cc3)nc2CN2CCN(c3ccc(OC)cc3)CC2)ccc1OCC(=O)O	Thyrotropin-releasing hormone receptor (Homo sapiens) (UniProt P34981)	inactive
CCC(Cl)C(Cl)C(Cl)CC(Cl)C(Cl)C(C)Cl (centres undefined)	Thyrotropin-releasing hormone receptor (Homo sapiens) (UniProt P34981)	inactive
Cc1c(C)c2c(c(C)c1OC(=O)CCC(=O)O)CC[C@@](C)(CCC[C@H](C)CCC[C@H](C)CCCC(C)C)O2	Thyrotropin-releasing hormone receptor (Homo sapiens) (UniProt P34981)	inactive
O=C(c1ccc(O)cc1O)c1ccc(O)cc1O	Thyrotropin-releasing hormone receptor (Homo sapiens) (UniProt P34981)	inactive
CCc1oc2ccccc2c1C(=O)c1cc(Br)c(O)c(Br)c1	Thyrotropin-releasing hormone receptor (Homo sapiens) (UniProt P34981)	inactive
Cc1ccc(-n2nc(C(C)(C)C)cc2NC(=O)Nc2ccc(OCCN3CCOCC3)c3ccccc23)cc1	Thyrotropin-releasing hormone receptor (Homo sapiens) (UniProt P34981)	inactive
COc1c(C)c2c(c(O)c1C/C=C(\C)CCC(=O)O)C(=O)OC2	Thyrotropin-releasing hormone receptor (Homo sapiens) (UniProt P34981)	inactive
Cc1c(C)c2c(c(C)c1O)CCC(C)(COc1ccc(CC3SC(=O)NC3=O)cc1)O2 (centres undefined)	Thyrotropin-releasing hormone receptor (Homo sapiens) (UniProt P34981)	inactive
COC(=O)C1=C(C)NC(C)=C(C(=O)OCC(C)C)C1c1ccccc1[N+](=O)[O-] (centres undefined)	Thyrotropin-releasing hormone receptor (Homo sapiens) (UniProt P34981)	inactive
CCCCCCCCNC(C)C(O)c1ccc(SC(C)C)cc1 (centres undefined)	Thyrotropin-releasing hormone receptor (Homo sapiens) (UniProt P34981)	inactive
CCCCc1oc2ccc(NS(C)(=O)=O)cc2c1C(=O)c1ccc(OCCCN(CCCC)CCCC)cc1	Thyrotropin-releasing hormone receptor (Homo sapiens) (UniProt P34981)	inactive
CN1CCN(CCC(=O)N2c3ccccc3Sc3ccc(C(F)(F)F)cc32)CC1	Thyrotropin-releasing hormone receptor (Homo sapiens) (UniProt P34981)	inactive

# credit: PubChem BioAssay (Tox21)
